Target: aggrecan from bovine articular cartilage
Assay: Surface plasmon resonance (SPR) binding to immobilized aggrecan
Conditions: steady-state affinity analysis; ligand: immobilized aggrecan; triplicate; read-out: Dissociation constant (KD)
pKd: −log10 of the molar value.
// pKd lookup, one value per entry
assay_endpoint: pKd

C[N+](C)(C)CCCNP(=O)(OCc1ccccc1)N(CCCl)CCCl (centres unmarked); 2.39
Cn1c(COP(=O)(NCCC[N+](C)(C)C)N(CCCl)CCCl)cnc1[N+](=O)[O-] (centres unmarked); 3.05
